Test system: Plasmodium falciparum
Assay: GSK_TCMDC: Inhibition of Plasmodium falciparum 3D7 in whole erythrocytes, using parasite LDH activity as an index of growth.
Type: functional, organism-based
Conditions: Plasmodium falciparum, 3D7
MEASUREMENT NAME: XC50 (nM)
Hi! Could you send only the number? It should be in nM, unit omitted.

Examples from the recorded data:
[[record]]
molecule = "CN1CCN(c2ccnc3ccc(NC(=O)c4ccc(Cl)c(Cl)c4)cc23)CC1"
unit_name = "nM"
experimental_value = 710

[[record]]
molecule = "N=C(/N=C(/NCCCCCCN/C(=N/C(=N)NCc1ccc(Cl)c(Cl)c1)N1CCCCC1)N1CCCCC1)NCc1ccc(Cl)c(Cl)c1"
unit_name = "nM"
experimental_value = 567

[[record]]
molecule = "CC[C@H]1CN2CC[C@@H]1C[C@H]2[C@H](O)c1cc(N2CCC(N3CCCCC3)CC2)nc2ccc(OC)cc12"
unit_name = "nM"
experimental_value = 267

[[record]]
molecule = "CC(C)NCc1cc(Nc2ccnc3cc(Cl)ccc23)ccc1O"
unit_name = "nM"
experimental_value = 25

[[record]]
molecule = "O=c1cc(NCCCNC2CCCc3c2cc(Cl)c(Cl)c3Cl)[nH]c2ccccc12 (stereo unspecified)"
unit_name = "nM"
experimental_value = 276

[[record]]
molecule = "Nc1nc(Cc2ccc(Cl)cc2)nc(Cc2ccc(Cl)cc2)n1"
unit_name = "nM"
experimental_value = 929


Indicate its recorded XC50; the molecule in question is Nc1nc(N)c2c(ccc3c2ncn3Cc2ccccc2)n1
93.4

----------
System: Plasmodium falciparum
Test: GSK_TCMDC: Inhibition of Plasmodium falciparum 3D7 in whole erythrocytes, using parasite LDH activity as an index of growth.
Assay type: functional, organism-based
Settings: Plasmodium falciparum, 3D7
MEASUREMENT NAME: XC50
Form entry: enter the amount, then its unit.

[[record]]
compound = "COc1ccc(-c2ccc(NC(=O)c3ccc(C#N)cc3)cc2)cc1CN1CCN(C)CC1"
experimental_value = "721 nM"


Indicate its recorded XC50; the compound in question is CC(C)(C)NCCN(Cc1ccc(-c2ccc(C(F)(F)F)cc2)cc1)C(=O)Cn1c(SCc2ccc(F)cc2)nc(=O)c2c1CCC2
860 nM

Indicate its recorded XC50; the compound in question is CCOc1ccc(OCC(=O)Nc2nc(-c3ccc(OC)cc3)c(C)s2)cc1
220 nM

Indicate its recorded XC50; the compound in question is O=S(=O)(NCCN1CCCC1)c1ccc(-c2ccc(CNCc3ccsc3)cc2)s1
832 nM

Indicate its recorded XC50; the compound in question is Cc1[nH]c2ccccc2c1C1CCN(CCCCNC(=O)c2ccc(-c3ccc(C#N)cc3)cc2)CC1
704 nM

----------
Test system: Plasmodium falciparum
Assay: GSK_TCMDC: Inhibition of Plasmodium falciparum 3D7 in whole erythrocytes, using parasite LDH activity as an index of growth.
Assay type: functional, organism-based
Settings: Plasmodium falciparum, 3D7
Each entry below lists one item and its recorded XC50 value.

[[record]]
molecule = "O=C(NCc1ccccc1)c1nn(CCCN2CCC3(CC2)C(=O)NCN3c2ccccc2)cc1-c1ccc(Cl)c(Cl)c1"
measurement_name = "XC50"
experimental_value = "1050 nM"

[[record]]
molecule = "C=CCc1cc(Cc2cnc(N)nc2N)c2ccc(C)nc2c1OC"
measurement_name = "XC50"
experimental_value = "691 nM"

[[record]]
molecule = "O=C1CCCN1CCCNCc1ccc(-c2ccc(-c3nc4cc(C(F)(F)F)ccc4[nH]3)s2)cc1"
measurement_name = "XC50"
experimental_value = "380 nM"


Indicate its recorded XC50; the molecule in question is Fc1ccc2[nH]c(-c3cccc(-c4cccc(CNCc5cnn(-c6ccccc6)n5)c4)c3)nc2c1
971 nM
